Kindly state Kd for each of the entries shown.
target: WT CBL-B (36-427) (Homo sapiens, UniProt Q13191); construct: N-terminal biotinylated WT CBL-B (36-427) and C-CBL (46-435) were captured on a streptavidin (SA) coated sensor chip; assay: Surface Plasmon Resonance (SPR) assay, binding affinity and kinetics, CBL-B; conditions: SPR at 10° C., biotinylated WT CBL-B (36-427) on streptavidin chip; geometric mean; read-out: CBL-B SPR Kd (nM) GMean
# value in nM; strip the unit string

Prompt: Look up Kd: CCNC(C)c1nc(C(F)(F)F)cc2c(-c3cccc([C@H](c4nncn4C)C4CCC4)c3)n[nH]c12 (single isomer, unassigned) [Example C89]
Completion: 4.1

Prompt: Please do the same for CC(CN)c1nc(C(F)(F)F)cc2c(-c3cccc(C4(Cc5nncn5C)COC4)c3)n[nH]c12 (single isomer, unassigned) [Example K6] as well.
Completion: 11.3

Prompt: Please do the same for C[C@H](N[C@@H]1CCOC1)c1nc(C(F)(F)F)cc2c(-c3cccc([C@H](c4nncn4C)C4CCC4)c3)n[nH]c12 (single isomer, unassigned) [Example D2] as well.
Completion: 3.8

---

biological target: CBL-B (residues 36-427) (Homo sapiens, UniProt Q13191); construct: Purified CBL-B (residues 36-427) and C-CBL (residues 46-435) proteins from baculovirus-infected insect cells; made in house; host or cells: baculovirus-infected insect cells; assay: Ligand Displacement Assay (LDA), HTRF competitive binding against BODIPY-labeled fluorescent tracer, CBL-B; settings: geometric mean of the number of tests, read-out: CBL-B Ki (nM) GMean
Parameter Measured: Ki (nM)
# value in nM; strip the unit string

Prompt: API: value(readout=Ki, system=CBL-B (residues 36-427) (Homo sapiens, UniProt Q13191)) for record CC(c1nc(C(F)(F)F)cc2c(-c3cccc(C4(Cc5nncn5C)COC4)c3)n[nH]c12)N1CCC[C@H](C)C1 (single isomer, unassigned) [Example C19]
Completion: 10.8

Prompt: Please do the same for C[C@@H]1CN([C@H](C)c2nc(C(F)(F)F)cc3c(-c4cccc(C5(Cc6nncn6C)COC5)c4)n[nH]c23)CCO1 (single isomer, unassigned) as well.
Completion: 9

Prompt: Please do the same for C[C@@H](c1nc(C(F)(F)F)cc2c(-c3cccc(C4(Cc5nncn5C)COC4)c3)n[nH]c12)N1CCNCC1 (single isomer, unassigned) as well.
Completion: 11.8

Prompt: Please do the same for `Cn1cnnc1CC1(c2cccc(-c3n[nH]c4c(CN5CCC(F)(F)C5)nc(C(F)(F)F)cc34)c2)COC1` as well.
Completion: 20.6

Prompt: Please do the same for `C[C@@H]1CN(Cc2nc(C(F)(F)F)cc3c(-c4cccc(C5(Cc6nncn6C)COC5)c4)n[nH]c23)CCO1` as well.
Completion: 18.6

Prompt: Please do the same for C[C@H](N[C@H]1C[C@@H](O)C1)c1nc(C(F)(F)F)cc2c(-c3cccc([C@H](c4nncn4C)C4CCC4)c3)n[nH]c12 (single isomer, unassigned) as well.
Completion: 1.8

---

molecular target: C-CBL (46-435) (Homo sapiens, UniProt P22681); construct: N-terminal biotinylated WT CBL-B (36-427) and C-CBL (46-435) were captured on a streptavidin (SA) coated sensor chip; assay: Surface Plasmon Resonance (SPR) assay, binding affinity and kinetics, C-CBL; details: SPR at 10° C., biotinylated C-CBL (46-435) on streptavidin chip; geometric mean; read-out: C-CBL SPR Kd (nM) GMean
Parameter Measured: Kd (nM)
# value in nM; strip the unit string

Prompt: Look up Kd: C[C@H](NC1CC[C@H]1O)c1nc(C(F)(F)F)cc2c(-c3cccc([C@H](c4nncn4C)C4CCC4)c3)n[nH]c12 (single isomer, unassigned) [Example D30]
Completion: 5.6

Prompt: Please do the same for C[C@@H](c1nc(C(F)(F)F)cc2c(-c3cccc(C4(Cc5nncn5C)COC4)c3)n[nH]c12)N1CCCC1 (single isomer, unassigned) [Example D47] as well.
Completion: 193

Prompt: Please do the same for C[C@H](O)CN[C@@H](C)c1nc(C(F)(F)F)cc2c(-c3cccc([C@H](c4nncn4C)C4CCC4)c3)n[nH]c12 (single isomer, unassigned) [Example D19] as well.
Completion: 17.2
